Molecular target: Adenosine receptor A1 (Homo sapiens, UniProt P30542); also: assay procedure not described here
Sequence (P30542 whole entry): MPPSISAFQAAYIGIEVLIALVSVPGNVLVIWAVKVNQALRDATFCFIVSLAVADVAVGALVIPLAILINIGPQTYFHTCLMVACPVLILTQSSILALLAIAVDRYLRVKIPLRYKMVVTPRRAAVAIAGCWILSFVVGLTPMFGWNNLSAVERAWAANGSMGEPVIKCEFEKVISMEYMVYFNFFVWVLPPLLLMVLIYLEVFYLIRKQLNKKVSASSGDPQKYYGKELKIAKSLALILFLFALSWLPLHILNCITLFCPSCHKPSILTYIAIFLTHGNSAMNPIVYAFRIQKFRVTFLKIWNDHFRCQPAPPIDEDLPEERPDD
I'd be grateful if you could share measured AC50 for these entries.

Examples with answers:
{"compound": "CCCCN1C[C@H](O)[C@@H](O)[C@H](O)[C@H]1CO", "AC50": "> 30 µM"}
{"compound": "NCC(=O)CCC(=O)O [AMINOLEVULINIC ACID]", "AC50": "> 30 µM"}
{"compound": "CC(C)(C)C(=O)Oc1ccc(S(=O)(=O)Nc2ccccc2C(=O)NCC(=O)O)cc1", "AC50": "> 30 µM"}

Provide AC50 values for the following items, in order.
1. O=C(O)C1=C(CSc2nnnn2CS(=O)(=O)O)CS[C@@H]2[C@H](NC(=O)[C@H](O)c3ccccc3)C(=O)N12 [CEFONICID]
2. C[C@@H](O)[C@H]1C(=O)N2C(C(=O)O)=C(S[C@@H]3CN[C@H](C(=O)N(C)C)C3)[C@H](C)[C@H]12 [MEROPENEM]
3. Cc1nnc2n1-c1ccc(Cl)cc1C(c1ccccc1Cl)=NC2 [TRIAZOLAM]
4. CC[C@@H]1C(=O)OC[C@@H]1Cc1cncn1C [PILOCARPINE]

1. > 30 µM
2. > 300 µM
3. > 30 µM
4. > 30 µM

// batch mode: one AC50 value per listed entry
1. COc1ccc(C(=O)Nc2ccccc2CCC2CCCCN2C)cc1 (centres undefined) [ENCAINIDE]
2. C=CCC1(C(C)CC)C(=O)NC(=O)NC1=O (centres undefined) [TALBUTAL]

1: > 30 µM; 2: > 10 µM

###

Give AC50 for every item shown.
target: UniProt P08908; type: functional, cell-based
Sequence (P08908 whole entry): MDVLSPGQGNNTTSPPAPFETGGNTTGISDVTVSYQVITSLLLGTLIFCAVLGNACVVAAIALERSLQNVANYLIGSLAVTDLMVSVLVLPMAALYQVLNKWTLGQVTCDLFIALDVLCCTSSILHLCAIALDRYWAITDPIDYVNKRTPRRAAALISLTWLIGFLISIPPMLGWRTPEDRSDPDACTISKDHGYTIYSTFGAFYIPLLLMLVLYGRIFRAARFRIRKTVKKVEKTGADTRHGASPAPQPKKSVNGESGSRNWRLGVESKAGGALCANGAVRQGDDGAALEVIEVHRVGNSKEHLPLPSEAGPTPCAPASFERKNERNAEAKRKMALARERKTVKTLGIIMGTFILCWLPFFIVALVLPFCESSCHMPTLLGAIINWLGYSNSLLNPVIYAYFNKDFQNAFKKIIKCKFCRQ

{"compound": "CCCC1O[C@@H]2C[C@H]3[C@@H]4CCC5=CC(=O)C=C[C@]5(C)[C@H]4[C@@H](O)C[C@]3(C)[C@]2(C(=O)CO)O1 (some centres undefined) [BUDESONIDE]", "reported result": "> 10 µM"}

// each listed compound needs a value for AC50
1. CCCN(CCC)C(=O)C(CCC(=O)O)NC(=O)c1ccccc1 (centres undefined) [PROGLUMIDE]
2. O=C(O)C[C@H](O)C[C@H](O)/C=C/c1c(C2CC2)nc2ccccc2c1-c1ccc(F)cc1

["> 10 µM", "> 10 µM"]

Required: AC50, one value per compound below.
1. C[C@](N)(Cc1ccc(O)c(O)c1)C(=O)O
2. CCCCCNC(=N)N/N=C/c1c[nH]c2ccc(OC)cc12
3. CN1C(=O)C(O)N=C(c2ccccc2Cl)c2cc(Cl)ccc21 (centres undefined)
4. O=C(O)/C=C/c1ccc(Cn2ccnc2)cc1
5. COc1ccccc1OCCNCC(O)c1ccc(C)c(S(N)(=O)=O)c1 (centres undefined)

> 10 µM
0.87 µM
> 30 µM
> 30 µM
0.16 µM

###

List of AC50 tested on Mu-type opioid receptor (Homo sapiens, UniProt P35372). Also: assay procedure not described here.
Sequence (P35372 whole entry): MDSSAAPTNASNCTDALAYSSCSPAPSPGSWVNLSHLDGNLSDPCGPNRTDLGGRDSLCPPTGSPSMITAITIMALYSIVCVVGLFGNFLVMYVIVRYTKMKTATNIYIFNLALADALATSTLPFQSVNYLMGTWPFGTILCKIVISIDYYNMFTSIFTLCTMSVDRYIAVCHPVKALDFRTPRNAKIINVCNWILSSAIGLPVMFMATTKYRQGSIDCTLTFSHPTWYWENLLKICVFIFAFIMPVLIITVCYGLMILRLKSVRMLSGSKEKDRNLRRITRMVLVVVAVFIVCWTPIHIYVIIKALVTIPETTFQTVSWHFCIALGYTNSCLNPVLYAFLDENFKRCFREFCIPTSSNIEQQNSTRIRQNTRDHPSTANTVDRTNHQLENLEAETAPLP

Guide cases for AC50, answers given:
{"compound": "C[N+](C)(C)CCO [CHOLINE]", "assay readout": "AC50", "reported result": "> 30 µM"}
{"compound": "O=c1[nH]c(=O)n([C@H]2C[C@H](O)[C@@H](CO)O2)cc1F [FLOXURIDINE]", "assay readout": "AC50", "reported result": "> 30 µM"}

Working through the 3 compounds below one at a time, give AC50 for each.
1. CC[N+]1(C)[C@@H]2CC(OC(=O)[C@H](CO)c3ccccc3)C[C@H]1[C@@H]1O[C@@H]12 (stereo partly specified) [OXITROPIUM]
2. CCCNC(C)C(=O)Nc1c(C)csc1C(=O)OC (stereo unspecified) [ARTICAINE]
3. CC(C)(C)CC(C)(C)c1ccc(O)c(Cc2ccc(Cl)cc2Cl)c1 [CLOFOCTOL]

1. > 30 µM
2. > 30 µM
3. 22 µM

###

biological target: Histamine H2 receptor (Homo sapiens, UniProt P25021); type: functional, cell-based; also: assay procedure not described here
Sequence (P25021 whole entry): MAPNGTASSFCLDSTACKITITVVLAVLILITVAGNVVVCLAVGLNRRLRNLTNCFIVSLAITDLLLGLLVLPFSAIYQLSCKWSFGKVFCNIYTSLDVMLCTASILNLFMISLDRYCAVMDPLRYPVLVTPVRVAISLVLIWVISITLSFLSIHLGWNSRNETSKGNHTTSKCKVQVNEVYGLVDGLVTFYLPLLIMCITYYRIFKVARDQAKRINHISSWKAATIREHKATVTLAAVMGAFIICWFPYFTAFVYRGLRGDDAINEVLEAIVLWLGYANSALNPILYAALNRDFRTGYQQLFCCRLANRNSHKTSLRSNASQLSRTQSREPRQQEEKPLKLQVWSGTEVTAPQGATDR
assay readout: AC50

Below: 8 molecules and their reported AC50.
{"molecule": "C[C@H](CSC(=O)c1ccccc1)C(=O)N1C[C@@H](Sc2ccccc2)C[C@H]1C(=O)O", "AC50": "> 10 µM"}
{"molecule": "COC1=C(OC)C(=O)C(C/C=C(\\C)CC/C=C(\\C)CC/C=C(\\C)CC/C=C(\\C)CC/C=C(\\C)CC/C=C(\\C)CC/C=C(\\C)CC/C=C(\\C)CC/C=C(\\C)CCC=C(C)C)=C(C)C1=O", "AC50": "> 30 µM"}
{"molecule": "CC[C@H]1CN2CCc3cc(OC)c(OC)cc3[C@@H]2C[C@@H]1C[C@H]1NCCc2cc(OC)c(OC)cc21", "AC50": "> 30 µM"}
{"molecule": "c1ccc([C@H]2CN3CCSC3=N2)cc1", "AC50": "> 30 µM"}
{"molecule": "COc1ccccc1N1CCN(CC(O)COc2cccc3ccccc23)CC1 (configuration not stated)", "AC50": "1.3 µM"}
{"molecule": "Nc1nc(NC2CC2)c2ncn([C@H]3C=C[C@@H](CO)C3)c2n1", "AC50": "> 30 µM"}
{"molecule": "Nc1nc(/C(=C/CC(=O)O)C(=O)N[C@@H]2C(=O)N3C(C(=O)O)=CCS[C@H]23)cs1", "AC50": "> 30 µM"}
{"molecule": "CCOc1ccccc1OCC1CNCCO1 (configuration not stated)", "AC50": "> 10 µM"}

Batch request: AC50 for each of the following molecules.
1. Clc1ccccc1C(c1ccccc1)(c1ccccc1)n1ccnc1
2. CCCc1nc(C(C)(C)O)c(C(=O)OCc2oc(=O)oc2C)n1Cc1ccc(-c2ccccc2-c2nnn[nH]2)cc1

> 10 µM
> 10 µM

Batch: AC50 for all items listed.
1. CCC(C)n1ncn(-c2ccc(N3CCN(c4ccc(OCC5COC(Cn6cncn6)(c6ccc(Cl)cc6Cl)O5)cc4)CC3)cc2)c1=O (configuration not stated)
2. CC(C)(C)NCC(O)COc1cccc2c1CCC(=O)N2 (configuration not stated)
3. Cc1nc([N+](=O)[O-])cn1-c1ccc([N+](=O)[O-])cc1

["> 10 µM", "> 10 µM", "> 30 µM"]

# return AC50 for each item in the list
1. CN(C)CCc1c[nH]c2ccc(C[C@H]3COC(=O)N3)cc12
2. Clc1ccc(C(c2ccccc2Cl)C(Cl)Cl)cc1 (configuration not stated)

1. > 30 µM
2. > 10 µM

Dear colleague, could you send me AC50 for each of the items below? Thanks.
1. C[C@]1(O)CC[C@H]2[C@@H]3CCC4=CC(=O)CC[C@]4(C)[C@@]3(F)[C@@H](O)C[C@@]21C
2. CN1C(=O)C(O)N=C(c2ccccc2Cl)c2cc(Cl)ccc21 (configuration not stated)

1: > 30 µM; 2: > 30 µM

###

molecular target: Alpha-2A adrenergic receptor (Homo sapiens, UniProt P08913); format: functional, cell-based; also: assay procedure not described here
Sequence (P08913 whole entry): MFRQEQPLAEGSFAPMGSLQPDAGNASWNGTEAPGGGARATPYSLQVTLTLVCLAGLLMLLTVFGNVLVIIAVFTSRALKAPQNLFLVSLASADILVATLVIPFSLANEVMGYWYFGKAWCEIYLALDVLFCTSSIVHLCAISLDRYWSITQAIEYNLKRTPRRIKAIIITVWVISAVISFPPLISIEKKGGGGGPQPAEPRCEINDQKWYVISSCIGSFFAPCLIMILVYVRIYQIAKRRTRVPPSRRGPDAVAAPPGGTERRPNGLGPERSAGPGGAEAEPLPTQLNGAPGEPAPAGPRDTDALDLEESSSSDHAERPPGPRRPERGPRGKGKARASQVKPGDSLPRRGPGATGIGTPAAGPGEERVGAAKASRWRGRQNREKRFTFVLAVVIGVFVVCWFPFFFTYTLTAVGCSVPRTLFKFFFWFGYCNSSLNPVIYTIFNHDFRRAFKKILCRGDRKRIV
assay readout: AC50

Some solved cases for reference:
{"molecule": "CO/N=C(\\C(=O)N[C@@H]1C(=O)N2C(C(=O)O)=C(CSc3nnnn3C)CS[C@H]12)c1csc(N)n1 [CEFMENOXIME]", "AC50": "> 30 µM"}
{"molecule": "COC1=C(OC)C(=O)C(C/C=C(\\C)CC/C=C(\\C)CC/C=C(\\C)CC/C=C(\\C)CC/C=C(\\C)CC/C=C(\\C)CC/C=C(\\C)CC/C=C(\\C)CC/C=C(\\C)CCC=C(C)C)=C(C)C1=O [UBIDECARENONE]", "AC50": "> 30 µM"}
{"molecule": "CN1C(=O)CCS(=O)(=O)C1c1ccc(Cl)cc1 (centres undefined) [CHLORMEZANONE]", "AC50": "> 10 µM"}
{"molecule": "CO[C@@H]1[C@@H](O[C@@H]2O[C@H](C)[C@@H](O[C@H]3C[C@@](C)(O)[C@@H](OC(=O)CC(C)C)[C@H](C)O3)[C@H](N(C)C)[C@H]2O)[C@@H](CC=O)C[C@@H](C)[C@@H](O)/C=C/C=C/C[C@@H](C)OC(=O)C[C@H]1OC(C)=O [JOSAMYCIN]", "AC50": "> 10 µM"}
{"molecule": "CC(=O)O[C@H]1C[C@@H]2CC[C@@H]3[C@H](CC[C@@]4(C)[C@H]3C[C@H]([N+]3(C)CCCCC3)[C@@H]4OC(C)=O)[C@@]2(C)C[C@@H]1N1CCCCC1 [VECURONIUM]", "AC50": "> 30 µM"}
{"molecule": "CC[C@@H]1C(=O)OC[C@@H]1Cc1cncn1C [PILOCARPINE]", "AC50": "> 10 µM"}
{"molecule": "Cc1ccc(-n2nccn2)c(C(=O)N2CCN(c3nc4cc(Cl)ccc4o3)CC[C@H]2C)c1 [SUVOREXANT]", "AC50": "> 30 µM"}
{"molecule": "C#C[C@]1(O)CC[C@H]2[C@@H]3CCC4=Cc5oncc5C[C@]4(C)[C@H]3CC[C@@]21C [DANAZOL]", "AC50": "> 10 µM"}
{"molecule": "O=C1Nc2ccc(Cl)cc2[C@@](C#CC2CC2)(C(F)(F)F)O1 [EFAVIRENZ]", "AC50": "> 10 µM"}
{"molecule": "Cc1cccc(Nc2ccccc2C(=O)O)c1C [MEFENAMIC ACID]", "AC50": "> 10 µM"}

Respectfully, I request AC50 for each entry included below.
1. C[C@@H]1O[C@@H](O[C@@H]2C=C3CC[C@@H]4[C@H](CC[C@]5(C)[C@@H](c6ccc(=O)oc6)CC[C@]45O)[C@@]3(C)CC2)[C@H](O)[C@H](O)[C@H]1O [PROSCILLARIDIN]
2. C[C@H](CSC(=O)c1ccccc1)C(=O)N1C[C@@H](Sc2ccccc2)C[C@H]1C(=O)O [ZOFENOPRIL]
3. COc1ccc2c3c1O[C@H]1[C@@H](O)CC[C@H]4[C@@H](C2)N(C)CC[C@@]341 [DIHYDROCODEINE]
4. CC(=O)OCC(=O)[C@@]12N=C(C)O[C@@H]1C[C@H]1[C@@H]3CCC4=CC(=O)C=C[C@]4(C)[C@H]3[C@@H](O)C[C@@]12C [DEFLAZACORT]

1. > 30 µM
2. > 10 µM
3. > 30 µM
4. > 30 µM
